# tgt: human F508del-CFTR (Homo sapiens, UniProt P13569, DEL508-508)
# Sequence (P13569 with tags, fused parts or gaps DEL508-508): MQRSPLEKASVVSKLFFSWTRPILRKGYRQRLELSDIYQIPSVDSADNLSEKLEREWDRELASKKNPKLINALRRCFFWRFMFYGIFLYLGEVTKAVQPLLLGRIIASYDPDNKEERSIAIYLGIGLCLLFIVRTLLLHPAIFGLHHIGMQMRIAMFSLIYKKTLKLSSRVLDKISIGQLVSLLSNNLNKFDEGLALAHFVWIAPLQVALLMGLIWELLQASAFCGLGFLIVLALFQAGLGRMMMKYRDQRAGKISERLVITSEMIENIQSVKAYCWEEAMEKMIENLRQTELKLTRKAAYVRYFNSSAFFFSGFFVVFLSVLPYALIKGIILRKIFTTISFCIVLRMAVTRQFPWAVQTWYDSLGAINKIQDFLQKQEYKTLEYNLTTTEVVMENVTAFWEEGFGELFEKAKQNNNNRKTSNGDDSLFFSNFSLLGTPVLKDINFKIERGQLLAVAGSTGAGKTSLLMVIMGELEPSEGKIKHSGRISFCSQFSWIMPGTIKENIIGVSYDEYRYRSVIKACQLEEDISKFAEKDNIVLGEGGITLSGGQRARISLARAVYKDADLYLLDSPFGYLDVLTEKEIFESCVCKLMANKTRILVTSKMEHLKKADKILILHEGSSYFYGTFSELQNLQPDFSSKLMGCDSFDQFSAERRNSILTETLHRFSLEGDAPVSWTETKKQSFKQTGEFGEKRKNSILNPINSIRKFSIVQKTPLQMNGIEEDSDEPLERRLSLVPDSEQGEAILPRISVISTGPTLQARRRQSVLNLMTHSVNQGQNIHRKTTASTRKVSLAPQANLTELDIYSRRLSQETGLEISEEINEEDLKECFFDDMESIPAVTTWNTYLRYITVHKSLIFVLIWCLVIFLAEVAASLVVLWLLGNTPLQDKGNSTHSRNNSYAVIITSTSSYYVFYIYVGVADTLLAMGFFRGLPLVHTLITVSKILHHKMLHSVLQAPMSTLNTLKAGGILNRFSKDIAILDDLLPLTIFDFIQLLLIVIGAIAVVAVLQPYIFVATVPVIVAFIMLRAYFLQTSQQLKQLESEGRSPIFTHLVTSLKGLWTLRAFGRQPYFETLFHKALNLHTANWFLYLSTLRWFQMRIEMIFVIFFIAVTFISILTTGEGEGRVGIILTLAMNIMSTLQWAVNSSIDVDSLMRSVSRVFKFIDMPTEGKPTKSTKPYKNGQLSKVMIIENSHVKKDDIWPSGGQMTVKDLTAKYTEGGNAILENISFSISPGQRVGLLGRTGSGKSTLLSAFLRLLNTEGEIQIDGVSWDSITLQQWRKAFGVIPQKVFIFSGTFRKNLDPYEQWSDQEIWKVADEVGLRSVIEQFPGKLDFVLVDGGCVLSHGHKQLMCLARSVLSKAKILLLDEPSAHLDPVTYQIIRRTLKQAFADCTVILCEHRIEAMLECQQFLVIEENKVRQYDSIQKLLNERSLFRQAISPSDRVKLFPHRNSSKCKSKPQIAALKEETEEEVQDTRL
# test-name: F508del-CFTR cell surface expression (corrector activity), DiscoveRx ß-galactosidase complementation chemiluminescence assay in recombinant U2OS cell line
# run-conditions: U2OS, in relation to the Emax of the corrector lumacaftor (=100%); U2OS cell line, 16h compound incubation; arithmetic mean values
Response field label: string, one of Met (Emax strictly below 200%) or Not met.

Examples from the recorded data:
[[record]]
molecule = "COc1cccc(CCNC(=O)[C@@H]2CC(=O)N(C)[C@@H](CC(C)C)C(=O)NC3(CC3)C(=O)N[C@H](Cc3ccccc3)COc3ccc4ccccc4c3C(=O)N2)c1 [Example 386]"
category = "Met"

[[record]]
molecule = "Cc1cc(CCNC(=O)[C@@H]2CC(=O)N(C)[C@@H](CC(C)C)C(=O)N3CCCC[C@@H]3C(=O)N[C@H](Cc3ccccc3)COc3cnc4ccccc4c3C(=O)N2)no1 [Example 98]"
category = "Not met"

[[record]]
molecule = "COc1cccc(CCNC(=O)[C@@H]2CC(=O)N(C)[C@@H](CC(C)C)C(=O)N(C)CC(=O)N[C@H](Cc3ccccc3)COc3ccsc3C(=O)N2)c1 [Example 240]"
category = "Met"


Prompt: Is the reported Emax for CC(C)C[C@H]1C(=O)N(C)C2(CC2)C(=O)N[C@H](Cc2ccccc2)COc2cnc3ccc(F)cc3c2C(=O)N[C@H](C(=O)NCCc2ccc(-n3nccn3)cc2)CC(=O)N1C [Example 135] strictly below 200%?
Response: Not met

Prompt: What do you get for COc1cc(OC)c2c(c1)OC[C@@H](Cc1ccccc1)NC(=O)CN(CCC1CCCCC1)C(=O)[C@H](C)N(C)C(=O)C[C@@H](C(=O)NCCc1ccc3c(c1)OCO3)NC2=O [Example 272] ?
Response: Met

Prompt: What do you get for COc1nccc2c1C(=O)N[C@H](C(=O)NCCc1ccc(-c3ncccn3)cc1)CC(=O)N(C)[C@@H](CC(C)C)C(=O)N1CCCC[C@@H]1C(=O)N[C@H](Cc1ccccc1)CO2 [Example 181] ?
Response: Not met

Prompt: What do you get for CC(C)C[C@H]1C(=O)N(C)C2(CC2)C(=O)N[C@H](Cc2ccccc2)COc2cnc3ccccc3c2C(=O)N[C@H](C(=O)NCCc2ccc(F)c(F)c2)CC(=O)N1C [Example 113] ?
Response: Met

Prompt: What do you get for CCOc1cccc(CCNC(=O)[C@@H]2CC(=O)N(C)[C@@H](CC(C)C)C(=O)N(CCC3CCCCC3)CC(=O)N[C@H](Cc3ccccc3)COc3cccc(OC)c3C(=O)N2)c1 [Example 201] ?
Response: Met

Prompt: What do you get for COc1cc(CCNC(=O)[C@@H]2CC(=O)N(C)[C@@H](CC(C)C)C(=O)N3CCOC[C@@H]3C(=O)N[C@H](Cc3ccccc3)COc3cnc4ccccc4c3C(=O)N2)cc(OC)c1 [Example 57] ?
Response: Not met

---

# tgt: human F508del-CFTR (Homo sapiens, UniProt P13569, DEL508-508)
# test-name: F508del-CFTR cell surface expression (corrector activity), DiscoveRx ß-galactosidase complementation chemiluminescence assay in recombinant U2OS cell line
# run-conditions: EC50, F508del-CFTR cell surface expression, U2OS cell line, 16h compound incubation; geomean values
EC50 values for the compounds below.
Write the answer as a number in nM, unit excluded.

# count of solved cases: 10
[[record]]
compound = "CC(C)C[C@H]1C(=O)N2CCCC[C@@H]2C(=O)N[C@H](Cc2ccccc2)COc2cnc3ccccc3c2C(=O)N[C@H](C(=O)NCCc2nc(C3CC3)no2)CC(=O)N1C"
tgt = "human F508del-CFTR (Homo sapiens, UniProt P13569, DEL508-508)"
metric = "EC50"
quantitative_result = 107

[[record]]
compound = "CCc1ccc(CCNC(=O)[C@@H]2CC(=O)N(C)[C@@H](CC(C)C)C(=O)N(CCC3CCCCC3)CC(=O)N[C@H](Cc3ccccc3)COc3cccc(OC)c3C(=O)N2)cc1"
tgt = "human F508del-CFTR (Homo sapiens, UniProt P13569, DEL508-508)"
metric = "EC50"
quantitative_result = 214

[[record]]
compound = "CN1C(=O)C[C@@H](C(=O)NCCc2ccc3c(c2)OCO3)NC(=O)c2c(ccc3ccccc23)OC[C@@H](Cc2ccccc2)NC(=O)CN(C[C@H]2CCCCO2)C(=O)[C@@H]1CC1CCCC1 (mixture of isomers)"
tgt = "human F508del-CFTR (Homo sapiens, UniProt P13569, DEL508-508)"
metric = "EC50"
quantitative_result = 177

[[record]]
compound = "COc1nccc2c1C(=O)N[C@H](C(=O)NCCc1nc(-c3ccccc3)no1)CC(=O)N(C)[C@@H](CC(C)C)C(=O)N1CCCC[C@@H]1C(=O)N[C@H](Cc1ccccc1)CO2"
tgt = "human F508del-CFTR (Homo sapiens, UniProt P13569, DEL508-508)"
metric = "EC50"
quantitative_result = 406

[[record]]
compound = "COc1cccc(CCNC(=O)[C@@H]2CC(=O)N(C)[C@@H](CC(C)C)C(=O)N3CCCC[C@@H]3C(=O)N[C@H](Cc3ccccc3)COc3ccc4ncoc4c3C(=O)N2)c1"
tgt = "human F508del-CFTR (Homo sapiens, UniProt P13569, DEL508-508)"
metric = "EC50"
quantitative_result = 332

[[record]]
compound = "COc1cccc2c1C(=O)N[C@H](C(=O)NCCCOC(F)F)CC(=O)N(C)[C@@H](CC(C)C)C(=O)N(CCC1CCCCC1)CC(=O)N[C@H](Cc1ccccc1)CO2"
tgt = "human F508del-CFTR (Homo sapiens, UniProt P13569, DEL508-508)"
metric = "EC50"
quantitative_result = 350

[[record]]
compound = "CC(C)C[C@H]1C(=O)N2CCOC[C@@H]2C(=O)N[C@H](Cc2ccccc2)COc2cnc3ccccc3c2C(=O)N[C@H](C(=O)NCCc2ccc3c(c2)OCC3)CC(=O)N1C"
tgt = "human F508del-CFTR (Homo sapiens, UniProt P13569, DEL508-508)"
metric = "EC50"
quantitative_result = 558

[[record]]
compound = "COc1cccc(CCNC(=O)[C@@H]2CC(=O)N(C)[C@@H](CC(C)C)C(=O)N3CCCC[C@@H]3C(=O)N[C@H](Cc3ccccc3)COc3ccc4oc(C)nc4c3C(=O)N2)c1"
tgt = "human F508del-CFTR (Homo sapiens, UniProt P13569, DEL508-508)"
metric = "EC50"
quantitative_result = 756

[[record]]
compound = "CC(C)C[C@H]1C(=O)N2CCN(C3CCC3)C[C@@H]2C(=O)N[C@H](Cc2ccccc2)COc2cnc3ccccc3c2C(=O)N[C@H](C(=O)NCCc2ccc3c(c2)OCO3)CC(=O)N1C"
tgt = "human F508del-CFTR (Homo sapiens, UniProt P13569, DEL508-508)"
metric = "EC50"
quantitative_result = 110

[[record]]
compound = "COc1cccc(CCNC(=O)[C@@H]2CC(=O)N(C)[C@@H](CC(C)C)C(=O)N(CCC3CCCCC3)CC(=O)N[C@H](Cc3ccccc3)COc3ccnc(OC)c3C(=O)N2)c1"
tgt = "human F508del-CFTR (Homo sapiens, UniProt P13569, DEL508-508)"
metric = "EC50"
quantitative_result = 114


Prompt: I am curious: what EC50 value has been reported for "Cc1c(CCNC(=O)[C@@H]2CC(=O)N(C)[C@@H](CC(C)C)C(=O)N3CCOC[C@@H]3C(=O)N[C@H](Cc3ccccc3)COc3ccc4ccccc4c3C(=O)N2)c(Cl)cc2c1OCCO2" ?
Response: 306

Prompt: What do you get for "COc1cccc(CCNC(=O)[C@@H]2CC(=O)N(C)[C@@H](CC(C)C)C(=O)N(C)CC(=O)N[C@H](Cc3ccccc3)COc3cccc(OC(F)(F)F)c3C(=O)N2)c1" ?
Response: 661

---

# tgt: human F508del-CFTR (Homo sapiens, UniProt P13569, DEL508-508)
# test-name: F508del-CFTR cell surface expression (corrector activity), DiscoveRx ß-galactosidase complementation chemiluminescence assay in recombinant U2OS cell line;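 also: U2OS cells co-expressing ProLink-tagged F508del-CFTR and a membrane-anchored enzyme acceptor, where more surface CFTR restores β-galactosidase activity measured by chemiluminescence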
# run-conditions: EC50, F508del-CFTR cell surface expression, U2OS cells, 16h compound incubation; geomean of several measurements
metric: pEC50
Note: pEC50 values are expressed as the negative base-10 logarithm of concentration in M.

# count of solved cases: 4
[[record]]
compound = "Cc1cc2c3c(ccc2cn1)OC[C@@H](Cc1ccccc1)NC(=O)[C@H]1CCCCN1C(=O)[C@H](CC(C)C)N(C)C(=O)C[C@@H](C(=O)NCCn1nnc(C2CC2)n1)NC3=O"
metric = "pEC50"
quantitative_result = 6.62

[[record]]
compound = "Cc1cc2c3c(ccc2cn1)OC[C@@H](Cc1ccccc1)NC(=O)[C@@H](Cc1nc(C(F)F)no1)N(C)C(=O)[C@H](CC(C)C)N(C)C(=O)C[C@@H](C(=O)NCCn1nnc(C2CC2)n1)NC3=O"
metric = "pEC50"
quantitative_result = 6.64

[[record]]
compound = "Cc1cc2c(c3cccnc13)C(=O)N[C@H](C(=O)NCCn1nnc(C3CC3)n1)CC(=O)N(C)[C@@H](CC(C)C)C(=O)N1CCCCC1C(=O)N[C@H](Cc1ccccc1)CO2 (some centres unmarked)"
metric = "pEC50"
quantitative_result = 6.01

[[record]]
compound = "COc1cc(CCNC(=O)[C@@H]2CC(=O)N(C)[C@@H](CC(C)C)C(=O)N(C)C3(CC(F)(F)C3)C(=O)N[C@H](Cc3ccccc3)COc3ccc4cnc(C)cc4c3C(=O)N2)on1"
metric = "pEC50"
quantitative_result = 6.57


Moving on to another compound below.
Prompt: Form field: pEC50 recorded for "COc1cc(CCNC(=O)[C@@H]2CC(=O)N(C)[C@@H](CC(C)C)C(=O)N(C)C3(CC(F)(F)C3)C(=O)N[C@H](Cc3ccccc3)COc3cnc4ccc(F)cc4c3C(=O)N2)on1" with human F508del-CFTR (Homo sapiens, UniProt P13569, DEL508-508) (enter value)
Response: 6.91
